Values were extracted from the RNAGym collection of RNA variant scans (doi:10.1073/pnas.2313332121).

B1: TPR t1 (parent)
chain: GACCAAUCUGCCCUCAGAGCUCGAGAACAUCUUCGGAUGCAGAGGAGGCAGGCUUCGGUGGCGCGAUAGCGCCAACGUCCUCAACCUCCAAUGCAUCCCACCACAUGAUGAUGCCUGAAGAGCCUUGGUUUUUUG

variants of: B1; test: polymerase ribozyme fitness, log enrichment relative to wild type (log ratio); higher = more active; in vitro selection for triplet polymerase activity

Variant Identifier | polymerase ribozyme fitness (log ratio)
C12G C94G | -1.02
G69U C70G A100C | -1.23
U87A A105U | -1.78
C4A U112A A119U C123U U125C | -0.636
C12U U129A | -0.808
A37C A95U | -0.484
C40U G120C | 0.116
C3G C11A C12U G58C C62U | -4.45
C20U G60A G61A C99U | -5.32
